Listing of entries alongside the reported Relative KD.
biological target: T1, full length recombinant human 2N4R tau (amino acids 1-441) (human, UniProt P10636 1-758); assay: SPR Biacore SCK, IgG on Protein A, tau analyte
T1 construct: Bought (rPeptide); recombinant, non-phosphorylated; also called recombinant tau
T1 sequence (P10636 other isoform, or with tags, fused parts or gaps limits assumed): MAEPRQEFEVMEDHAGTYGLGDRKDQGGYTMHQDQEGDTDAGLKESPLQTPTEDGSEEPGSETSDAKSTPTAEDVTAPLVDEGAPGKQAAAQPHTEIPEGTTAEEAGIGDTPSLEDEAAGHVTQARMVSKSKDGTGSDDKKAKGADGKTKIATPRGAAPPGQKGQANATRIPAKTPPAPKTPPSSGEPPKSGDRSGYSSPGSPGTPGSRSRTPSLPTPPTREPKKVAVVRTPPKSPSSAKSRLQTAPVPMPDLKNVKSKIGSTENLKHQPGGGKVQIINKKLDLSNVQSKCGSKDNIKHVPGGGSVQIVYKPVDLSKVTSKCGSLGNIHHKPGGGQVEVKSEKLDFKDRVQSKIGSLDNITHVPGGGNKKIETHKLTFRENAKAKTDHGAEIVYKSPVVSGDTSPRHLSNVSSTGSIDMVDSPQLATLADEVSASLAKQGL
Please state the number and follow it with the unit.

// solved cases for Relative KD follow
| binder | Relative KD |
| --- | --- |
| Clone 17 (VH1Vκ5), humanised variant of clone #28, human IgG1 (antibody, V domains shown, also called VH1VK5) VH: QSLQESGGGLVKPSETLSLTCTVSGFSLNNYDMSWVRQAPGKGLEWIGTVSTTYRRYYASWAKGRFTISKTSSTTVDLKMTSLTAEDTATYFCAASGIWGRGTLVTVSS VL: DIQMTQSPSTLSASVGDRVTITCQSSQRVSSSYLAWYQQKPGQPPKRLIFLASTLESGVPSRFSGSGSGTEFTLTISSLQPDDFATYYCAGTYTGSIWAFGGGTKVEIK | 0.91 fold vs VH0VK0 |
| Clone 31 (VH5Vκ2), humanised variant of clone #28, human IgG1 (antibody, V domains shown, also called VH5VK2; VH5Vk2) VH: QVQLQESGPGLVKPSETLSLTCTVSGFSLNNYDMSWVRQAPGKGLEWIGTVSTTYRRYYASWAKGRFTISRDNSKNTLDLQMTSLTAEDTATYFCAASGIWGRGTLVTVSS VL: AQVLTQSPSTLSASVGDRVTITCQSSQRVYSNYLAWYQQKPGQPPKRLIFLASTLESGVPSRFSGSGSGTEFTLTISSLQPDDFATYYCAGTYTGSIWAFGGGTKVEIK | 2.13 fold vs VH0VK0 |

As a next step, examine the binder that follows.
Suppose we examine the binder Clone 25 (VH3Vκ5), humanised variant of clone #28, human IgG1 (antibody, V domains shown, also called VH3VK5) VH: QVQLQESGPGLVKPSETLSLTCTVSGFSLNNYDMSWVRQAPGKGLEWIGTVSTTYRRYYASWAKGRFTISKTSSTTVDLQMTSLTAEDTATYFCAASGIWGRGTLVTVSS VL: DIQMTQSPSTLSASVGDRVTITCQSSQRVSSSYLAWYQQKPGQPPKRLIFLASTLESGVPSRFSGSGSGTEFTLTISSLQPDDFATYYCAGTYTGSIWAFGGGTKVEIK ; what Relative KD value has been reported?
0.86 fold vs VH0VK0
